Reference source: patent US20250276077A1

target: Human EphA2 (ephrin receptor A2) on cells (human, UniProt P29317 25-976); experiment: cell-based or functional assay
Sequence (P29317 25-976): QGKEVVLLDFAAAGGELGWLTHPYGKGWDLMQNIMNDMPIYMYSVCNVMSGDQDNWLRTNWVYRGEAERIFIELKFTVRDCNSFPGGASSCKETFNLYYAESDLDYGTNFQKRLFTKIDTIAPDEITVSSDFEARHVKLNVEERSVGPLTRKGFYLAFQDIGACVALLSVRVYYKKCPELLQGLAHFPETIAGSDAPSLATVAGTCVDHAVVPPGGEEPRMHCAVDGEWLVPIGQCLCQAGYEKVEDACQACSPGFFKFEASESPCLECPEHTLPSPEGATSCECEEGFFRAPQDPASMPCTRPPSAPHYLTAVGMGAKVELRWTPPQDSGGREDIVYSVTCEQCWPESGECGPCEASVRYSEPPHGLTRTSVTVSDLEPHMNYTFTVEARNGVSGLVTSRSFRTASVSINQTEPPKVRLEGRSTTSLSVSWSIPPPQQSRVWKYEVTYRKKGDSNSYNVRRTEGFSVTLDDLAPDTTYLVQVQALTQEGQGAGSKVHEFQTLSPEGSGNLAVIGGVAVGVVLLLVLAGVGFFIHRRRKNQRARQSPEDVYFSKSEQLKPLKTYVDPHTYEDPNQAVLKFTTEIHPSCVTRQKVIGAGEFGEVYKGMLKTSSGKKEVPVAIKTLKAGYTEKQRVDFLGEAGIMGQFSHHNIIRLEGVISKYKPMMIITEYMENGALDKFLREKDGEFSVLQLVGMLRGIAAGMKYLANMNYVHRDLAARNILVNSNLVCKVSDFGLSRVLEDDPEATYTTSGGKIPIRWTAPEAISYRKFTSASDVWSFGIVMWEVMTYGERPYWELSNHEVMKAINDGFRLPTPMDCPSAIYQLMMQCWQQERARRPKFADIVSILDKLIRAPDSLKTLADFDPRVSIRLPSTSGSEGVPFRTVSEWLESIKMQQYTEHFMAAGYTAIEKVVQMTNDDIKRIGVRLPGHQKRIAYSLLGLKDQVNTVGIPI
REPORTED_METRIC: ADCC - EC50 (nM), Trial 1, A549

Query: ADCC - EC50 (nM), Trial 1, A549 for AB-010676 (antibody, V domains shown) VH: QVQLQQWGAGLLKPSETLSLTCAVYGGSFSGYYWSWIRQPPGKGLEWIGEINHRGSINYNNYNPSLKSRVTISVDTSKNQFSLKLSSVTAADTAVYYCAKPLRPHCTNGVCYSGDAFDIWGQGTMVTVAS VL: SYVLTQPPSVSVAPGQTARITCRGNNIGYKNVHWYQQKPGQAPVLVVYDDSDRPSGIPEQFSGSNSGNTATLTISRVEAGDEADYYCQVWDSSSDHVVFGGGTKLTVL ?
Result: ~0.1 nM

Query: ADCC - EC50 (nM), Trial 1, A549 for AB-010684 (antibody, V domains shown) VH: QVQLQQWGAGLLKPSETLSLTCAVYGGSFSGYYWSWIRQPPGKGLEWIGEINHRGSINYNNYNPSLKSRVTISVDTSKNQFSLKLSSVTAADTAVYYCAKPLRPHCINGVCYSGDAFDIWGQGTMVTVAS VL: SYVLTQPPSVSVAPGQTARITCGGNNIGSKNVHWYQQKPGQAPVLVVYDDSDRPSGIPEQFSGSNSGNTATLTISRVEAGDEADYYCQVWDHSSDHVVFGGGTKLTVL ?
Result: ~0.14 nM

Query: ADCC - EC50 (nM), Trial 1, A549 for AB-010697 (antibody, V domains shown) VH: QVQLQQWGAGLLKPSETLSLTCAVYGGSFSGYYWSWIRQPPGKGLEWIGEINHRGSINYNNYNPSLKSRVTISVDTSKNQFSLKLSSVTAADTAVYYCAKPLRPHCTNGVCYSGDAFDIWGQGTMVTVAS VL: SYVLTQPPSVSVAPGQTARITCGGNNIGSMNVHWYQQKPGQAPVLVVYDDSDRPSGIPERFSGSNSGNTATLTISRVEAGDEADYYCQVWDHSSDHVVFGGGTKLTVL ?
Result: 0.3 nM

Query: ADCC - EC50 (nM), Trial 1, A549 for AB-010678 (antibody, V domains shown) VH: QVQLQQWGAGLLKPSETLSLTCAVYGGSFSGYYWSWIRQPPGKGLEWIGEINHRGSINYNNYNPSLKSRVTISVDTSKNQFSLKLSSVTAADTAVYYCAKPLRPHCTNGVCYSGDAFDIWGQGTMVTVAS VL: SYVLTQPPSVSVAPGQTARITCRGNNIGSKNVHWYQQKPGQAPVLVVYDDSDRPSGIPEQFSGSNSGNTATLTISRVEAGDEADYYCQVWDHSSDHVVFGGGTKLTVL ?
Result: ~0.14 nM

Query: ADCC - EC50 (nM), Trial 1, A549 for AB-010666 (antibody, V domains shown) VH: QVQLQQWGAGLLKPSETLSLTCAVYGGSFSDYYWSWIRQPPGKGLEWIGEINHRGSINYNNYNPSLKSRVTISVDTSKNQFSLKLSSVTAADTAVYYCAKPLRPHCTNGVCYSGDAFDIWGQGTMVTVAS VL: SYVLTQPPSVSVAPGQTARITCGGNNIGYMNVHWYQQKPGQAPVLVVYDDSDRPSGIPEQFSGSNSGNTATLTISRVEAGDEADYYCQVWDSSSDHVVFGGGTKLTVL ?
Result: ~0.19 nM
